# assay-system: ClpP Enzyme
# experimental-setup: pH 8
Can you tell me IC50 for the items I'm about to list?
Write the answer as a number in µM, unit excluded.

What IC50 appears in the records for this molecule with ClpP Enzyme? `O=[N+]([O-])C(=C1Nc2ccccc2N1)C(Cl)=C(Cl)Cl`
23

What IC50 appears in the records for this molecule with ClpP Enzyme? `COc1ccc(/C=C(\C#N)c2nnc(/N=C/N(C)C)s2)cc1`
25

What IC50 appears in the records for this molecule with ClpP Enzyme? `Clc1nc2ccccc2nc1N1CC1`
19

src = patent US20070113300A1
